Molecular target: Cathepsin D (Cat D) (Homo sapiens (Human))
Sequence (P07339 65-412, species assumed): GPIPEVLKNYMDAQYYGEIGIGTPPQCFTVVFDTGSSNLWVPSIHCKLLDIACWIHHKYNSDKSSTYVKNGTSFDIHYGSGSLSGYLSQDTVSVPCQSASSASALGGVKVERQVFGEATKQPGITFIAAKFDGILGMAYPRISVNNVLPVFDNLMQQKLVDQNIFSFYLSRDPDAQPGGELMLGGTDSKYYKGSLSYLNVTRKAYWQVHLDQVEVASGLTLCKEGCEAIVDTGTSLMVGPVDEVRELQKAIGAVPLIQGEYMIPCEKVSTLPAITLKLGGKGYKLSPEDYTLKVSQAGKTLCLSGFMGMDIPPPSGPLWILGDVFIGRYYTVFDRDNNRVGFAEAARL
Experiment: In vitro enzymatic Cathepsin D (Cat D) FRET assay
Format: biochemical
Details: read-out: CatD IC50
pIC50: −log10 of the molar value.
readout.type: pIC50

[A] NC1=N[C@@](c2cc(NC(=O)c3ccc(OC(F)F)cn3)ccc2F)(C(F)F)[C@H]2C[C@H]2O1 [Example 312]
[B] N#Cc1cnc(C(=O)Nc2ccc(F)c([C@@]3(C(F)F)N=C(N)O[C@@H]4C[C@@H]43)c2)c(F)c1 [Example 388]
Query: # query: argmin of pIC50 over A and B Answer = label.
Result: B

[P] C[C@H](C#N)Oc1ccc(C(=O)Nc2ccc(F)c([C@@]3(C(F)F)N=C(N)O[C@@H]4C[C@@H]43)c2)nc1 (mixture of isomers) [Example 259]
[Q] Cc1cc(C(F)F)cnc1C(=O)Nc1ccc(Cl)c([C@@]2(CF)N=C(N)O[C@@H]3C[C@@H]32)c1 [Example 122]
Query: # query: argmin of pIC50 over P and Q Answer = label.
Result: Q

====

Target: UniProt:P07339
Test: In vitro enzymatic Cathepsin D (Cat D) FRET assay
Assay type: biochemical
Details: read-out: CatD IC50
readout.type: IC50 (µM)

molecule	unit	IC50
COc1c(F)cc(NC(=O)c2ccc(Cl)cn2)cc1[C@]1(CF)N=C(N)O[C@H]2C[C@H]21 [Example 146]	µM	768
C#CCOc1ccc(C(=O)Nc2ccc(F)c([C@@]3(C(F)F)N=C(N)O[C@@H]4C[C@@H]43)c2)nc1 [Example 232]	µM	588

[A] NC1=N[C@](CF)(c2cc(NC(=O)c3ccc(OCF)cn3)ccc2Cl)[C@H]2C[C@H]2O1 [Example 183]
[B] C#CCOc1cnc(C(=O)Nc2ccc(F)c([C@@]3(CF)N=C(N)O[C@@H]4C[C@@H]43)c2)cn1 [Example 197]
[C] N#Cc1ccc(C(=O)Nc2ccc(F)c([C@@]3(CF)N=C(N)O[C@@H]4C[C@@H]43)c2)nc1 [Example 192]
[D] COCc1cc(C#N)cnc1C(=O)Nc1ccc(Cl)c([C@@]2(CF)N=C(N)O[C@@H]3C[C@@H]32)c1 [Example 386]
Query: Which order do these items take when sorted by rising IC50? List them. Sort and list the labels as requested.
Result: B, C, A, D

[A] COc1cnc(C(=O)Nc2ccc(F)c([C@@]3(C(F)F)N=C(N)O[C@@H]4C[C@@H]43)c2)cn1 [Example 72]
[B] NC1=N[C@](CF)(c2cc(NC(=O)c3nn(C(F)F)cc3Cl)cnc2F)[C@H]2C[C@H]2O1 [Example 207]
[C] NC1=N[C@@](c2cc(NC(=O)C3CCOCC3)ccc2F)(C(F)F)[C@H]2C[C@H]2O1 [Example 242]
[D] CC#CCOc1ccc(C(=O)Nc2ccc(F)c([C@@]3(C(F)F)N=C(N)O[C@@H]4C[C@@H]43)c2)nc1 [Example 233]
Query: Returns the items ordered by IC50, from maximum to minimum. Sort and list the labels as requested.
Result: C, A, B, D

[A] NC1=N[C@@](c2cc(NC(=O)COc3ccccc3)ccc2F)(C(F)F)[C@H]2C[C@H]2O1 [Example 256]
[B] NC1=N[C@@](c2cc(NC(=O)c3cc(Cl)ccn3)ccc2F)(C(F)F)[C@H]2C[C@H]2O1 [Example 287]
Query: Out of A and B , name the one with the higher IC50. Answer = label.
Result: B
(B: 1630 µM, A: 331 µM)

Values from patent US9085576B2
